Recorded IC50 for the following compounds
study_target: Trans-sialidase (Trypanosoma cruzi, UniProt Q26966)
Sequence (Q26966 whole entry): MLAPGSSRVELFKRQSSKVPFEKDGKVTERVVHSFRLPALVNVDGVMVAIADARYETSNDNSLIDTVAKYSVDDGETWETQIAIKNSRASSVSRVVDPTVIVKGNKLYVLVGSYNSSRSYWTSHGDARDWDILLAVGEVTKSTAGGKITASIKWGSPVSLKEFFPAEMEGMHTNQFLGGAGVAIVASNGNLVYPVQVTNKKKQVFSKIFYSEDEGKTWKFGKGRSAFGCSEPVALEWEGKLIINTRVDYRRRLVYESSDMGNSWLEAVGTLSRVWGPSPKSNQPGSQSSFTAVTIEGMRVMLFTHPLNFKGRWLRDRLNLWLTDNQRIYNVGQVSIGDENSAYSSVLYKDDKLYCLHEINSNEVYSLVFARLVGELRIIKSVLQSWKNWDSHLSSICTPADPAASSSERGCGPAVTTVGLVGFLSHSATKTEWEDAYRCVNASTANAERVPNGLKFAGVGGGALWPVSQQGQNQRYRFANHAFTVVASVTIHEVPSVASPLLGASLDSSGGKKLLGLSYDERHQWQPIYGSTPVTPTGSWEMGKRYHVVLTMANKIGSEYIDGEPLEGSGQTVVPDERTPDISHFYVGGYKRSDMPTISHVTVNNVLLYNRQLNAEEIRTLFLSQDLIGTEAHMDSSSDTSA
procedure_details: Inhibition of Trypanosoma cruzi trans-Sialidase by MuNANA assay
# value in µM; strip the unit string

Known results for compounds:
CC(=O)c1sc(C(C)(C)C)cc1NC(=O)c1ccccc1C(=O)O: 270
CCCOC(=O)c1c(NC(=O)C2CCCCC2C(=O)O)sc(C)c1C (stereo unspecified): 210
Cc1ccc(C)c(/C=C(\CC(=O)O)c2nc3ccccc3s2)c1: 120

What the record says about O=C(O)C/C(=C\c1cccc(F)c1)c1nc2ccccc2s1 : IC50 is 120

What the record says about COc1ccc(/C=C(\CC(=O)O)c2nc3ccccc3s2)cc1OC : IC50 is 180

What the record says about CCOc1ccccc1/C=C(\CC(=O)O)c1nc2ccccc2s1 : IC50 is 160
